// cross-source set; read-out = log10 of Ki; system = Tyrosine-protein kinase JAK1 (Homo sapiens, UniProt P23458)
Sequence (P23458 whole entry): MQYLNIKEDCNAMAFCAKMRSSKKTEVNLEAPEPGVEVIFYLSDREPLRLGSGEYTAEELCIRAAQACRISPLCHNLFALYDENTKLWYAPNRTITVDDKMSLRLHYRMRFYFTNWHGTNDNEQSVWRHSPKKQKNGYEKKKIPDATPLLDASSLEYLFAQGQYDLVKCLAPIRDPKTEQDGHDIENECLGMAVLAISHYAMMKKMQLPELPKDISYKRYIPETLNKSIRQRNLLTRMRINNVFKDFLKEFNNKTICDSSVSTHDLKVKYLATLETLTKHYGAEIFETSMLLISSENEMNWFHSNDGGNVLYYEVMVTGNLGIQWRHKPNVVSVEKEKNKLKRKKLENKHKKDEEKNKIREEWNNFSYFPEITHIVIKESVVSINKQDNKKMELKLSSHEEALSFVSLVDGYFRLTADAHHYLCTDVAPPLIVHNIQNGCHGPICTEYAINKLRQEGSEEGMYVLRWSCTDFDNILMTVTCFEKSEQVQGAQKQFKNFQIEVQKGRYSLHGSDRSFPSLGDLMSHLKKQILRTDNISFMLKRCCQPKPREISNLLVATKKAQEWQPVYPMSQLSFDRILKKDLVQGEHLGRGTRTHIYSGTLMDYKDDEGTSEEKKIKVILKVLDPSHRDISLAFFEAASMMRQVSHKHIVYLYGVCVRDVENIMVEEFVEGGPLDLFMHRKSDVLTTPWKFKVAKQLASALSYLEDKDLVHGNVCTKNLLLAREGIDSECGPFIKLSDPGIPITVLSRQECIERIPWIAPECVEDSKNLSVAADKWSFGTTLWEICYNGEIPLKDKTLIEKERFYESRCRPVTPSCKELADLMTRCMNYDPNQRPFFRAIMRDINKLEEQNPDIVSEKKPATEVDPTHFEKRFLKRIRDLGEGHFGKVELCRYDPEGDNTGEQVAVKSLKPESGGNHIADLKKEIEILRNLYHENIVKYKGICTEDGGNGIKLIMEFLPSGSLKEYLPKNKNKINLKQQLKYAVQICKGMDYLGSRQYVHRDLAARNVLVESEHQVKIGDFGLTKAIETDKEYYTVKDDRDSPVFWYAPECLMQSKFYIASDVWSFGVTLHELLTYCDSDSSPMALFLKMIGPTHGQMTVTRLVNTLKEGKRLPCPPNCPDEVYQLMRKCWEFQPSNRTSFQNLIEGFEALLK
MEASUREMENT KIND: log10 of Ki (log10 of the value in nM)

>>> meas_value("N#CCCN1CCC(n2c(CC3CCOCC3)nc3cnc4[nH]ccc4c32)CC1")
1.63
>>> meas_value("C[C@@H](O)c1nc2cnc3[nH]ccc3c2n1[C@H]1CC[C@H](NCC(F)(F)F)CC1")
-0.10
>>> meas_value("Cn1cc(NC(=O)c2cnn3cccnc23)c(-c2cc(Cl)ccc2O)n1")
1.51
>>> meas_value("C[C@@H](O)c1nc2cnc3[nH]ccc3c2n1[C@@H]1CCCN(C(=O)CC#N)C1")
0.72
>>> meas_value("c1ccc(CN2CCC[C@@H](n3nnc4cnc5[nH]ccc5c43)C2)cc1")
1.40
